- Test system: HCC 2998
- Assay Overview: NCI tumour cell line growth inhibition, 48 h
The source made the active and inactive calls. Cut-off read from the data, not from the text of the source: active = GI50 up to about 1.1 µM and inactive = higher.
For each record, write down the corresponding GI50.

-- ask Query the reported GI50 for HCC 2998; item: O=C1c2ccccc2-c2ccc(N(Cc3ccc(Br)cc3)Cc3ccc(Br)cc3)cc21
-- reply > 100 µM (inactive)

-- ask Query the reported GI50 for HCC 2998; item: [N-]=[N+]=CC(=O)OC1Cc2ccccc2C1
-- reply > 100 µM (inactive)

-- ask Query the reported GI50 for HCC 2998; item: CC(=O)O[C@H]1C(=O)[C@@]2(C)C(C(OC(=O)c3ccccc3)[C@]3(O)CC(OC(=O)C(O)C(NC(=O)c4cccc(Cl)c4)c4ccccc4)C(C)=C1C3(C)C)[C@]1(OC(C)=O)CO[C@@H]1C[C@@H]2O (stereo partly drawn)
-- reply 0.0664 µM (active)

-- ask Query the reported GI50 for HCC 2998; item: CCOC(=O)c1c(-c2ccc(OC)c(O)c2)c(C#N)c(=S)n(C2OC(CO)C(O)C(O)C2O)c1-c1ccccc1 (stereo not drawn)
-- reply > 100 µM (inactive)

-- ask Query the reported GI50 for HCC 2998; item: COc1cc2c(cc1OC)C1(c3ccc(Cl)cc3)ON=C(c3ccccc3)N1CS2 (stereo not drawn)
-- reply > 100 µM (inactive)

-- ask Query the reported GI50 for HCC 2998; item: CC(C)CC(NC(=O)C(COc1ccc([N+](=O)[O-])cc1)Cc1ccccc1)C(=O)Nc1ccccc1 (stereo not drawn)
-- reply 13.1 µM (inactive)

-- ask Query the reported GI50 for HCC 2998; item: COC(=O)C1=CO[C@@H](OC2OC(CO)C(O)C(O)C2O)[C@H]2[C@@H](C)[C@@H](O)[C@@H](O)[C@@H]12 (stereo partly drawn)
-- reply > 100 µM (inactive)

-- ask Query the reported GI50 for HCC 2998; item: COc1ccccc1N1C(=O)CC(=O)N(C(=O)CCCCCCCCC(=O)N2C(=O)CC(=O)N(c3ccccc3OC)C2=S)C1=S
-- reply > 100 µM (inactive)

###

- Tested on: OVCAR-3
- Assay Overview: NCI tumour cell line growth inhibition, 48 h
Structures can show the parent of a compound that is named as a salt. Active and inactive are the calls of the source. Rule as the data show it: active = GI50 up to about 1.1 µM and inactive = higher.
Hi there, use one of these labels in your reply, thanks! active, inactive

-- ask // return assay outcome for O=C(O)CCC(N/N=N/c1ccc(-c2nc3ccccc3[nH]2)cc1)C(=O)O (stereo not given)
-- reply inactive

-- ask // return assay outcome for CC(=O)Oc1c(C)c2c(O)c3c1C1=C(OCOC1=C(C)C3=O)/C(C)=C/C(C)(O)C(O)C(C)C(O)C1C(=O)OC(C(C)C1O)C(C)(O)/C=C\C=C(C)C(=O)N2 (stereo not given)
-- reply inactive

-- ask // return assay outcome for CCCCOCCOCCOC1=C(Cl)C(=O)c2c(O)ccc(O)c2C1=O
-- reply active

-- ask // return assay outcome for Cn1c2nc3ccccc3c-2cc2ccccc21 [NEOCRYPTOLEPINE HYDROCHLORIDE]
-- reply inactive

-- ask // return assay outcome for CC(CSC(=N)N)C(N)=O (stereo not given)
-- reply inactive

-- ask // return assay outcome for CC(C)(C)OC(=O)NCC(=O)N1CCCN(C(=O)CNC(=O)OC(C)(C)C)CC1
-- reply inactive

-- ask // return assay outcome for CCCCCCCCOP(=O)(O)OP(=O)(O)OCC1OC(n2ccc(N)nc2=O)C(O)C1O (stereo not given)
-- reply inactive

-- ask // return assay outcome for CCOC(=O)CCC(NC(=O)c1ccc(NCc2ccc3nc(OC)c(OC)nc3c2)c2ccccc12)C(=O)OCC (stereo not given)
-- reply inactive

-- ask // return assay outcome for COC1CC(OC2C(C)OC(OC3C(C)OC(OC4C(O)CC(O[C@H]5CC[C@@]6(C)C(=CC[C@]7(O)[C@@H]6C[C@@H](OC(C)=O)[C@@]6(C)[C@]7(O)CC[C@@]6(O)C(C)=O)C5)OC4C)CC3OC)CC2OC)OC(C)C1O (stereo not given in full)
-- reply inactive

-- ask // return assay outcome for CNc1ncnc(Sc2nc(N)nc3[nH]cnc23)c1[N+](=O)[O-]
-- reply active

-- ask // return assay outcome for COC(=O)CCC(=O)Nc1cc(C)ccc1C
-- reply inactive

-- ask // return assay outcome for CCCC(=O)OC1CC(n2cc(F)c(=O)[nH]c2=O)OC1CO (stereo not given)
-- reply inactive

-- ask // return assay outcome for COc1ccccc1N1C(=O)CC(=O)N(C(=O)CCCCCCCCC(=O)N2C(=O)CC(=O)N(c3ccccc3OC)C2=S)C1=S
-- reply inactive

-- ask // return assay outcome for Cc1c(C)c2ccc(O)cc2[nH]c1=O
-- reply inactive

-- ask // return assay outcome for C=CCC1NCCC2=C1C(S(=O)(=O)c1ccc(C)cc1)c1ccccc12 (stereo not given)
-- reply inactive

-- ask // return assay outcome for NC(=O)C(=O)N/N=C1/c2ccccc2CC1C1(O)C(=O)Nc2c(Cl)cc(Cl)cc21 (stereo not given)
-- reply inactive

-- ask // return assay outcome for CC1=NN(C(=O)c2ccccc2O)C(=O)/C1=C/c1ccco1
-- reply active

-- ask // return assay outcome for CC(=O)C1C(=O)C(C(C)=O)C2C3C=CC(C3)C12 (stereo not given)
-- reply inactive

-- ask // return assay outcome for Nn1c(S)nnc1N/N=C1/C(=O)Nc2c(Cl)cc(Cl)cc21
-- reply inactive

-- ask // return assay outcome for CCOP(=O)(C/C(O)=C1\C(=O)C(CCCCNC(=O)OC(C)(C)C)N(Cc2ccccc2)C1=O)OCC (stereo not given)
-- reply inactive

-- ask // return assay outcome for CCc1cccc(C)c1NC(=O)CCc1nnc(S)[nH]1
-- reply inactive

-- ask // return assay outcome for CCCC(=O)c1ccc2c(ccc(=O)n2C)c1
-- reply inactive

-- ask // return assay outcome for CC1CCC(=O)NCCCCC(=O)N1 (stereo not given)
-- reply inactive

-- ask // return assay outcome for Fc1cccc(C2SCc3nc4cc5ccccc5cc4n32)c1 (stereo not given)
-- reply inactive

-- ask // return assay outcome for COc1ccc(-c2c(C3=NCCCN3)nnn2-c2ccccc2)cc1
-- reply inactive

-- ask // return assay outcome for COc1cc(S(=O)(=O)Nc2ccc(-c3csc(/N=C\c4ccccc4O)n3)cc2)ccc1Cl
-- reply inactive

-- ask // return assay outcome for O=C(CSc1nc2ccc(I)cc2c(=O)n1Cc1ccccc1)Nc1ccc(Br)cc1
-- reply inactive

-- ask // return assay outcome for CCSc1nc(COC(=O)NC)c(COC(=O)NC)n1C
-- reply inactive

-- ask // return assay outcome for Cc1ccccc1C(=O)C#Cc1cn(C2CC(O)C(CO)O2)c(=O)[nH]c1=O (stereo not given)
-- reply inactive

-- ask // return assay outcome for N#Cc1c(N)nc2c(/N=N\c3ccccc3)c(N)nn2c1Nc1ccccc1
-- reply inactive

-- ask // return assay outcome for COc1cc(OC)c(/C=C/c2cnc3ccccc3n2)c(OC)c1
-- reply inactive

-- ask // return assay outcome for O=C1OC(C(O)CO)C(C(O)CO)OC1=O (stereo not given)
-- reply inactive

-- ask // return assay outcome for COc1cccc(NC(=O)CC(=O)Nc2cccc(OC)c2)c1
-- reply inactive

-- ask // return assay outcome for CC12CC3CC(C)(C1)CC(N=[N+]=[N-])(C3)C2
-- reply inactive

-- ask // return assay outcome for O=[N+]([O-])C(C=C(n1nnc2ccccc21)n1nnc2ccccc21)=C(n1nnc2ccccc21)n1nnc2ccccc21
-- reply inactive

-- ask // return assay outcome for COc1ccc(OC)c(/C=C2/C(=O)N/C(=N\C(C)=O)N2C)c1
-- reply inactive

-- ask // return assay outcome for COC(=O)N/N=c1\cc(C(=O)Nc2ccc(C)c(C)c2)oc2cc(O)ccc12
-- reply inactive

-- ask // return assay outcome for CCCCn1cc(C(=O)O)c(=O)c2c3sccc3ccc21
-- reply inactive

-- ask // return assay outcome for CC(=O)O[C@H]1C(=O)[C@@]2(C)C(C(OC(=O)c3ccccc3)[C@]3(O)CC(OC(=O)C(O)C(NC(=O)c4cccc(Cl)c4)c4ccccc4)C(C)=C1C3(C)C)[C@]1(OC(C)=O)CO[C@@H]1C[C@@H]2O (stereo not given in full)
-- reply active

-- ask // return assay outcome for CN1C(=O)c2ccccc2NC(=O)C12O[C@@H]2c1cccc(O)c1 (stereo not given in full)
-- reply inactive

###

For each record, write down the corresponding GI50.
- Test system: SK-OV-3
- Assay Overview: NCI tumour cell line growth inhibition, 48 h
The source made the active and inactive calls. Cut-off read from the data, not from the text of the source: active = GI50 up to about 1.1 µM and inactive = higher.

-- ask Given the entry COc1cc2c(cc1O)[C@]1(Cc3ccc4c(c3C1=O)OCO4)N(C)CC2 , report its measured GI50.
-- reply > 100 µM (inactive)

-- ask Given the entry N#CC1(C#N)C=CC(=C2OCC3CCCN23)C=C1 (configuration not stated) , report its measured GI50.
-- reply > 100 µM (inactive)

-- ask Given the entry O=c1ccn(C2OC(CN(O)CCC3C(O)C(CO)OC3n3ccc(=O)[nH]c3=O)C(O)C2O)c(=O)[nH]1 (configuration not stated) , report its measured GI50.
-- reply > 100 µM (inactive)

-- ask Given the entry OC(Cc1ccc2ccccc2n1)(C(F)(F)F)C(F)(F)F , report its measured GI50.
-- reply > 10 µM (inactive)

-- ask Given the entry COc1cc(OC)c2c(=O)cc(-c3ccc(OC)c(OC)c3OC)oc2c1 , report its measured GI50.
-- reply > 100 µM (inactive)

-- ask Given the entry O=C(NC1CCCCCC1)C1C(=O)N(C2CCCCCC2)C(=O)/C1=N\O (configuration not stated) , report its measured GI50.
-- reply 38.4 µM (inactive)

-- ask Given the entry CC1C=CC(C(N)C(=O)O)O1 (configuration not stated) , report its measured GI50.
-- reply > 100 µM (inactive)

-- ask Given the entry COC(=O)Nc1nc2cc(NC(=O)c3cccs3)ccc2[nH]1 , report its measured GI50.
-- reply 29 µM (inactive)

-- ask Given the entry Cc1nnc(N/N=C2\C(=O)Nc3ccccc32)n1N , report its measured GI50.
-- reply > 100 µM (inactive)

-- ask Given the entry Oc1ccc2ccccc2c1/N=N/c1ccc(/N=N/c2ccccc2)cc1 , report its measured GI50.
-- reply > 100 µM (inactive)

-- ask Given the entry CCCOC(=O)CNC(=O)OC(C)(C)C , report its measured GI50.
-- reply > 100 µM (inactive)

-- ask Given the entry COC(=O)[C@H](Cc1c[nH]c2ccccc12)NP(=O)(O)OC[C@H]1O[C@@H](n2cc(C)c(=O)[nH]c2=O)C[C@@H]1N=[N+]=[N-] , report its measured GI50.
-- reply > 100 µM (inactive)

-- ask Given the entry CCOP(=O)(OCC)C(c1ccc(F)cc1)N(C(=O)NC(F)(F)F)c1cccc(C(F)(F)F)c1 (configuration not stated) , report its measured GI50.
-- reply > 100 µM (inactive)

-- ask Given the entry N#CC(CC(=O)O)=C(c1ccccc1)c1ccccc1 , report its measured GI50.
-- reply > 100 µM (inactive)

-- ask Given the entry ON/N=C/c1cc2c(cc1Br)OCO2 , report its measured GI50.
-- reply > 386 µM (inactive)

-- ask Given the entry N/C(=N\O)N/N=C\c1ccccc1O , report its measured GI50.
-- reply 31.3 µM (inactive)

-- ask Given the entry O=c1oc2cc(O)ccc2c2[nH]c3cc(O)ccc3c12 , report its measured GI50.
-- reply 22.2 µM (inactive)

-- ask Given the entry COc1c(O)c(OC)c2oc(-c3ccc(O)cc3)c(OC)c(=O)c2c1O , report its measured GI50.
-- reply 17 µM (inactive)

-- ask Given the entry [N-]=[N+]=CC(=O)OC1Cc2ccccc2C1 , report its measured GI50.
-- reply > 100 µM (inactive)

-- ask Given the entry COc1ccc(-c2c(C3=NCCCN3)nnn2-c2ccccc2)cc1 , report its measured GI50.
-- reply > 100 µM (inactive)

-- ask Given the entry CS(=O)(=O)O[C@H]1[C@H](O)c2ccccc2[C@@H]1N=[N+]=[N-] , report its measured GI50.
-- reply > 100 µM (inactive)

-- ask Given the entry Cc1cc2c(c(C(=O)NCC(=O)N[C@@H](C)C(=O)OCc3ccccc3)c1)Oc1c(cc(C)cc1C(=O)NCC(=O)N[C@@H](C)C(=O)OCc1ccccc1)S2 , report its measured GI50.
-- reply > 100 µM (inactive)
